Cited source: PubChem BioAssay (EPA / NIEHS)

assayed target: Cellular tumor antigen p53 (Homo sapiens) (UniProt P04637)
Sequence (P04637 whole entry, looked up): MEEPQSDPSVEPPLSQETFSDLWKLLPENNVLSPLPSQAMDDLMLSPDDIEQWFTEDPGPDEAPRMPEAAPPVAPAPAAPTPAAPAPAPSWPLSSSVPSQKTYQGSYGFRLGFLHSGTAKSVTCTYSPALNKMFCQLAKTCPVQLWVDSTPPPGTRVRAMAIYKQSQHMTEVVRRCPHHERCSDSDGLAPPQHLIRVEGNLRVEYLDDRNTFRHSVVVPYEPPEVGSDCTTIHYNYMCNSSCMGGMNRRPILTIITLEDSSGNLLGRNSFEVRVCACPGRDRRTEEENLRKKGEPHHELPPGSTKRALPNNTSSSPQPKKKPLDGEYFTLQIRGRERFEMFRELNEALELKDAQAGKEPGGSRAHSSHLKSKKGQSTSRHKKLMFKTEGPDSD
test method notes: TOX21_p53_BLA_p3_ratio: Tox21 HCT-116 p53 Agonism Beta-lactamase Assay, Ratio, Phase 3 (AID 2283596)
Records with an inconclusive call do not appear. Active and inactive are the calls of the source. The calls were made as follows: active = hit-call score of the fitted dose curve at least 0.9, where 1 is the maximum; inconclusive = response in the unintended direction; inactive = score below 0.9.
Please answer using one outcome listed in true for active, false for inactive

Answered cases to consult:
• COC(=O)c1cncn1C(C)c1ccccc1 (stereo not given) = false
• ClCOCCl = false
• NC(=O)CS(=O)C(c1ccccc1)c1ccccc1 (stereo not given) = false
• O=C(O)C(Cl)Br (stereo not given) = false
• COC(C)(C)CCC[C@H](C)C/C=C/C(C)=C/C(=O)OC(C)C = false

Input: I would be grateful if you could indicate the recorded call for O=C(Cl)CCl .
Output: false

Input: I would be grateful if you could indicate the recorded call for CO[C@H]1[C@@H](O)C[C@H](O[C@H]2[C@@H](O)C[C@H](O[C@H]3[C@@H](O)C[C@H](O[C@H]4CC[C@@]5(C)[C@H](CC[C@@H]6[C@@H]5C[C@@H](O)[C@]5(C)[C@@H](C7=CC(=O)OC7)CC[C@]65O)C4)O[C@@H]3C)O[C@@H]2C)O[C@@H]1C .
Output: false

Input: I would be grateful if you could indicate the recorded call for CC(=O)[O][Pb]([c]1ccccc1)([c]1ccccc1)[c]1ccccc1 .
Output: true

Input: I would be grateful if you could indicate the recorded call for C[C@@H]1O[C@@H](O[C@@H]2C=C3CC[C@@H]4[C@H](CC[C@]5(C)[C@@H](c6ccc(=O)oc6)CC[C@]45O)[C@@]3(C)CC2)[C@H](O)[C@H](O)[C@H]1O .
Output: false

Input: I would be grateful if you could indicate the recorded call for C=C(Cl)CCl .
Output: false
